- ASSAYED_SYSTEM: full-length beta-Catenin (Uniprot ID P35222) (Homo sapiens)
- Construct: 10 nM full-length beta-Catenin (Uniprot ID P35222)
- Sequence (P35222 whole entry): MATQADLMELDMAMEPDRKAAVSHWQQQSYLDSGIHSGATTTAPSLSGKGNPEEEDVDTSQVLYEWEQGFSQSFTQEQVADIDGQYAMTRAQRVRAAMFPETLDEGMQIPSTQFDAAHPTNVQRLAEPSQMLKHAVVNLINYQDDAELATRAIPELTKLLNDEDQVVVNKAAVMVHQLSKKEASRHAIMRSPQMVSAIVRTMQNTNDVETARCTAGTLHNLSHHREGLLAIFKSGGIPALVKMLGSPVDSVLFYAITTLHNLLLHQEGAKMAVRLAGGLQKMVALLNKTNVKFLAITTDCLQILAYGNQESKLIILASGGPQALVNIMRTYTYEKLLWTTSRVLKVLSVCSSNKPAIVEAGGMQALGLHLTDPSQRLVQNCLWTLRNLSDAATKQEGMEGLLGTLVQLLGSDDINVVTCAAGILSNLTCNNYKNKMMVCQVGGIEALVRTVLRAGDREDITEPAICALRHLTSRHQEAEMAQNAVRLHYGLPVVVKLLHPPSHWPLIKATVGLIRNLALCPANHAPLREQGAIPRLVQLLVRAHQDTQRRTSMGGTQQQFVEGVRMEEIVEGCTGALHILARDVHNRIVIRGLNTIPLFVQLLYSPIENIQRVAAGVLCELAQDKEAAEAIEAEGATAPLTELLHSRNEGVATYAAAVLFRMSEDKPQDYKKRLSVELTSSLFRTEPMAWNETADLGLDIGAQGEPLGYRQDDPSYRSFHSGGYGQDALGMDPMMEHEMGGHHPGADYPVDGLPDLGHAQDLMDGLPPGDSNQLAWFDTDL
- ASSAY_INFO: Fluorescence polarization IC50 (beta-catenin / 5FAM-TCF4 10-53 competition)
- Format: binding
- RUN_PARAMETERS: read-out: beta-Catenin FP IC50
Listing of entries alongside the reported IC50.
Give your result as the value with the unit written after it.

COMPOUND	ENDPOINT_VALUE
CC(=O)N1CCC[C@]12CC=CCCCC1(CCCC=CCCCOC(=O)N3CC[C@@](C(=O)N[C@@H](Cc4ccsc4)C(=O)N[C@@H](Cc4csc5ccccc45)C(=O)N[C@@H](CCC(N)=O)C(=O)N[C@@H](CCCCN)C(N)=O)(C3)NC(=O)[C@H](CC(N)=O)NC(=O)[C@H](Cc3ccccc3)NC(=O)[C@H](C)NC(=O)[C@H](C)NC(=O)[C@H](CC(=O)O)NC(=O)[C@H](CC(=O)O)NC1=O)NC(=O)[C@H](CC(C)(C)C)NC(=O)[C@H](CC(=O)O)NC2=O (some centres unmarked) [I-939]	8 nM

Now take the following compound into account.
Lookup: Provide the documented IC50 with full-length beta-Catenin (Uniprot ID P35222) (Homo sapiens) as the system for CC(=O)N1CCC[C@]12CC=CCCCC1(CCCC=CCCCOC(=O)N3CC[C@@](C(=O)N[C@@H](Cc4ccsc4)C(=O)N[C@@H](Cc4cccc5ccccc45)C(=O)N[C@@H](Cc4c[nH]cn4)C(N)=O)(C3)NC(=O)[C@H](CC(N)=O)NC(=O)[C@H](Cc3ccccc3)NC(=O)[C@H](C)NC(=O)[C@H](C)NC(=O)[C@H](CC(=O)O)NC(=O)[C@H](CC(=O)O)NC1=O)NC(=O)[C@H](CC(C)(C)C)NC(=O)[C@H](CC(=O)O)NC2=O (some centres unmarked) [I-789]
Found: 19 nM
